Tested on: MCF7
Assay: Antiproliferative activity against human MCF7 cells assessed as reduction in cell viability incubated for 48 hrs by MTT assay
Type: functional, cell-based
Details: MCF7, 48 h, read-out: IC50
MEASUREMENT_LABEL: IC50

Example cases with answers are listed next.
- COMPOUND: "C=C1[C@H](OCC(C)C)C2=C(C[C@@](C)(OC(C)=O)[C@@H]2OC(C)=O)[C@@H](OC(=O)c2ccccc2)[C@@H](C)/C=C/C(C)(C)[C@H](OC(C)=O)[C@H](OC(C)=O)[C@H]1OCC(C)C"
  IC50: "> 100 µM"
- COMPOUND: "CC(=O)O[C@@H]1[C@@H]2[C@@H](OCC(C)C)C3(CO3)[C@H](O)[C@@H](O)[C@@H](O)C(C)(C)/C=C/[C@H](C)[C@H](OC(=O)c3ccccc3)[C@@]2(O)C[C@@]1(C)O (stereo partly specified)"
  IC50: "> 100 µM"
- COMPOUND: "C=C1[C@H](OC(C)=O)[C@@H](OC(C)=O)[C@@H](OC(C)=O)C(C)(C)/C=C/[C@H](C)[C@H](OC(=O)c2ccccc2)[C@@]2(O)C[C@@](C)(OC(=O)c3cccc(C)c3)[C@H](OC(C)=O)[C@@H]2[C@H]1OCC(C)C"
  IC50: "> 100 µM"

Q: Which value of IC50 has been reported for C=C1[C@H](OC(C)=O)[C@@H](OC(C)=O)[C@@H](O)C(C)(C)/C=C/[C@H](C)[C@H](OC(=O)c2ccccc2)[C@@]2(O)C[C@@](C)(O)[C@H](OC(C)=O)[C@@H]2[C@H]1OCC(C)C in the records?
A: > 100 µM

Q: Please do the same for C=C1[C@H](OC(C)=O)[C@@H](OC(C)=O)[C@@H](OC(C)=O)C(C)(C)/C=C/[C@H](C)[C@H](OC(=O)c2ccccc2)[C@@]2(O)C[C@@](C)(OC(=O)c3ccncc3)[C@H](OC(C)=O)[C@@H]2[C@H]1OCC(C)C as well.
A: > 100 µM

Q: Please do the same for C=C1[C@H](OC(C)=O)[C@@H](OC(C)=O)[C@@H](OC(C)=O)C(C)(C)/C=C/[C@H](C)[C@H](OC(=O)c2ccccc2)[C@@]2(O)C[C@@](C)(OC(C)=O)[C@H](OC(C)=O)[C@@H]2[C@H]1OCC(C)C as well.
A: 74.3 µM

---

pIC50 reference
Test system: MCF7
Experiment: Antiproliferative activity against human MCF7 cells assessed as reduction in cell viability incubated for 48 hrs by MTT assay
Assay type: functional, cell-based
Details: MCF7, 48 h, read-out: IC50
Units for pIC50: none; it is -log10 of a concentration expressed in mol/L.

- SMILES_STRING: "C=C1[C@H](OC(=O)c2cccc(C)c2)[C@@H](O)[C@@H](O)C(C)(C)/C=C/[C@H](C)[C@H](OC(=O)c2ccccc2)[C@@]2(O)C[C@@](C)(O)[C@H](OC(C)=O)[C@@H]2[C@H]1OCC(C)C"
  TARGET: "MCF7"
  pIC50: 4.67

Q: Which value of pIC50 has been reported for C=C1[C@H](O)[C@@H](OC(=O)C(C)(C)C)[C@@H](O)C(C)(C)/C=C/[C@H](C)[C@H](OC(=O)c2ccccc2)[C@@]2(O)C[C@@](C)(O)[C@H](OC(C)=O)[C@@H]2[C@H]1OCC(C)C in the records?
A: 4.16

// data source = ChEMBL document CHEMBL5247598
